Tested on: E. coli TESEC Mtb Alr
Experiment: growth (OD600 after 10 h); higher = more growth (less inhibition)
Settings: arabinose 10000 nM; compound 0.1 mM; raw OD600 reference: median of DMSO wells 0.264, cell-free background 0.041
Structures can show the parent of a compound that is named as a salt.
Collected growth values appear next to each entry.
Answer with the value's number alone.

{"molecule": "c1ccc2nc(N3CCNCC3)ccc2c1 [Quipazine dimaleate salt]", "reading": 0.25}
{"molecule": "CC(N)C(O)c1ccccc1 (stereo not given) [Phenylpropanolamine hydrochloride]", "reading": 0.254}
{"molecule": "O=P1(NCCCl)OCCCN1CCCl (stereo not given) [Ifosfamide]", "reading": 0.274}

# growth of NC(=O)OCCCc1ccccc1 [Phenprobamate] = 0.258

# growth of C[C@]12CC[C@H](O)C[C@@H]1CC[C@@H]1[C@@H]2CC[C@]2(C)C(=O)CC[C@@H]12 [Epiandrosterone] = 0.107

# growth of CC[C@@]1([C@@H]2O[C@@H]([C@H]3O[C@@](O)(CO)[C@H](C)C[C@@H]3C)C[C@@H]2C)CC[C@H]([C@]2(C)CC[C@]3(C[C@H](O)[C@@H](C)[C@@H]([C@@H](C)[C@@H](OC)[C@H](C)C(=O)O)O3)O2)O1 [Monensin sodium salt] = 0.264

# growth of CN1[C@@H]2CC[C@H]1C[C@@H](OC1c3ccccc3CCc3ccccc31)C2 [Deptropine citrate] = 0.0399

# growth of CC(C)c1cccc(C(C)C)c1O = 0.255

# growth of C[C@@H]1O[C@@H](O[C@@H]2C=C3CC[C@@H]4[C@H](CC[C@]5(C)[C@@H](c6ccc(=O)oc6)CC[C@]45O)[C@@]3(C)CC2)[C@H](O)[C@H](O)[C@H]1O = 0.256

# growth of NC(=O)CN1CCCC1=O = 0.27

# growth of Clc1ccc(C(OCCN2CCCCC2)c2ccccc2)cc1 (stereo not given) [Cloperastine hydrochloride] = 0.246

# growth of CCC(=O)O[C@H]1CC[C@H]2[C@@H]3CCC4=CC(=O)CC[C@]4(C)[C@H]3CC[C@]12C [Testosterone propionate] = 0.261

# growth of C[C@@H]1CN([C@H]2CC[C@](C#N)(c3ccc(F)cc3)CC2)CC[C@]1(C(=O)O)c1ccccc1 [Levocabastine hydrochloride] = 0.271

# growth of CC(C)C[C@H]1C(=O)N2CCC[C@H]2[C@]2(O)O[C@](NC(=O)[C@@H]3C=C4c5cccc6[nH]c(Br)c(c56)C[C@H]4N(C)C3)(C(C)C)C(=O)N12 [Bromocryptine mesylate] = 0.108

# growth of C=CCC1(CC(C)C)C(=O)NC(=O)NC1=O = 0.276

The reported measurements were obtained from the supplement of paper PMC9262897.
